molecular target: AAK1 (121-471) (Homo sapiens, UniProt Q2M2I8); assay: STD-NMR fragment screening, AAK1; assay type: binding; conditions: 1 = hit, 0 = no hit
Sequence (Q2M2I8 46-315 limits assumed): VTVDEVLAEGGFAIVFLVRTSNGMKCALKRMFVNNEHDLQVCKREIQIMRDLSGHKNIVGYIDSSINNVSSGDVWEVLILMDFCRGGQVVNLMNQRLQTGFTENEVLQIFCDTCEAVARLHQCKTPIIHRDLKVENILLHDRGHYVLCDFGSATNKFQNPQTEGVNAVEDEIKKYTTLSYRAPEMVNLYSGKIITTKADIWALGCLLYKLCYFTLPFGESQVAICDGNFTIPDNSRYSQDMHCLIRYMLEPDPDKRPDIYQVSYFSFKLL
reportedMetric: AAK1 (STD-NMR hit flag)

Q: Return reported AAK1 (STD-NMR hit flag); argument: NS(=O)(=O)c1cc(C(=O)O)ccc1Cl
Result: 0

Q: // lookup AAK1 (STD-NMR hit flag) for Cc1ccc(Cl)c(CN)c1F
Result: 0

Q: Find the recorded AAK1 (STD-NMR hit flag) belonging to Clc1cnc(Cl)nc1 and report it.
Result: 0

Q: Recorded AAK1 (STD-NMR hit flag) for Nc1cnccc1I , please?
Result: 1

Q: So what does the record say about AAK1 (STD-NMR hit flag) for O=C(O)c1cnccc1Br ?
Result: 0

Q: Bench note: what AAK1 (STD-NMR hit flag) did Cc1n[nH]c(C(=O)O)c1Br show?
Result: 1

Q: What AAK1 (STD-NMR hit flag) value was documented for this compound, COCn1nc(Br)[nH]c1=O ?
Result: 0

Q: AAK1 (STD-NMR hit flag) lookup needed for CNc1cc(Cl)c2c(c1)OCO2 , thanks.
Result: 0

Q: So what does the record say about AAK1 (STD-NMR hit flag) for Nc1ncc(Br)s1 ?
Result: 0

Q: Value lookup for AAK1 (STD-NMR hit flag); key = O=C(O)C(O)c1ccccc1Cl (stereo not drawn)
Result: 0

Q: May I ask what AAK1 (STD-NMR hit flag) has been recorded for Cc1n[nH]c(C)c1I ?
Result: 1

Q: // AAK1 (STD-NMR hit flag) lookup, key: Cc1ccc(N)c(Cl)n1
Result: 1

###

target: CAMK1G (1-320) (Homo sapiens, UniProt Q96NX5); construct: made in house; host or cells: E. coli BL21 (DE3) pLysS; assay: STD-NMR fragment screening, CAMK1G; type: binding; conditions: 1 = hit, 0 = no hit
Sequence (Q96NX5 1-320): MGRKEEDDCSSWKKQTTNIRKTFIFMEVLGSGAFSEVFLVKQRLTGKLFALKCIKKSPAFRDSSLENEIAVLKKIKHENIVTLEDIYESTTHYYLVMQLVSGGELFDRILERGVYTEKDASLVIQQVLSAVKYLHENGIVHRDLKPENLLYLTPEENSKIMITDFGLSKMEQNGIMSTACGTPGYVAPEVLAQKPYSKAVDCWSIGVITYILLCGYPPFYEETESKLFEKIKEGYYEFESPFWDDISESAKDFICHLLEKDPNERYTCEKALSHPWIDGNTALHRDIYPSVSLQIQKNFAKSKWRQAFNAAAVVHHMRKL
reportedMetric: CAMK1G (STD-NMR hit flag)
Number, no unit, nothing else.

Q: State the recorded CAMK1G (STD-NMR hit flag) for this entry: Cn1cc(Br)c(N)n1
Result: 0

Q: CAMK1G (STD-NMR hit flag) for Fc1cnccc1I ?
Result: 1

Q: Dear colleague, I am looking for the recorded CAMK1G (STD-NMR hit flag) of the following compound: Clc1nsnc1N1CCOCC1
Result: 0

Q: What value of CAMK1G (STD-NMR hit flag) has been recorded for this entry: Cc1ccc(C(=O)O)c(Cl)n1
Result: 0

Q: Which CAMK1G (STD-NMR hit flag) reading was recorded for the compound Cn1ncc(Br)c1C(=O)O ?
Result: 0

Q: So what's the measured CAMK1G (STD-NMR hit flag) for this one? NCCCn1cc(Cl)cn1
Result: 0

Q: Record request: CAMK1G (STD-NMR hit flag) value, item Nc1ccc(Br)cn1
Result: 0

Q: Can you look up the measured CAMK1G (STD-NMR hit flag) of Cc1c(Cl)cnc(N)c1Cl for me?
Result: 1

Q: # lookup: CAMK1G (STD-NMR hit flag) of O=C(O)c1ccncc1Br
Result: 0

Q: Using the record for Cc1ccc(N)c(Cl)n1 , report its CAMK1G (STD-NMR hit flag).
Result: 0

Q: Bench note: what CAMK1G (STD-NMR hit flag) did Brc1cnn2cccnc12 show?
Result: 1

Q: Reported CAMK1G (STD-NMR hit flag), compound CC(C)c1nsc(Cl)n1 : ____
Result: 0

Q: // returns reported CAMK1G (STD-NMR hit flag) for input O=C(O)c1cccnc1Cl
Result: 0

Q: What does the data say about its CAMK1G (STD-NMR hit flag)? Entry: OCc1c(Cl)nc2sccn12
Result: 0

Q: Name the recorded CAMK1G (STD-NMR hit flag) for Brc1noc(C2CC2)n1 .
Result: 0

Q: Which measured CAMK1G (STD-NMR hit flag) value corresponds to Brc1cncnc1 ?
Result: 0

Q: Requested read-out: CAMK1G (STD-NMR hit flag). Entry: NS(=O)(=O)c1cc(C(=O)O)ccc1Cl
Result: 0

Q: CAMK1G (STD-NMR hit flag) for COc1ncc(Br)cc1C(=O)O ?
Result: 0

Q: What value of CAMK1G (STD-NMR hit flag) has been reported for the following compound? O=c1cc(O)c(Cl)c[nH]1
Result: 0

Q: // CAMK1G (STD-NMR hit flag) lookup, key: OCc1cc2c(cc1Cl)OCO2
Result: 1

Q: What measured CAMK1G (STD-NMR hit flag) goes with Cc1cnc(C)c(Cl)n1 ?
Result: 0

Q: Looking for the measured CAMK1G (STD-NMR hit flag) of Brc1ccc(C2CNCCN2)s1 (stereo not drawn) , can you help?
Result: 0

Q: What does the data say about its CAMK1G (STD-NMR hit flag)? Entry: OB(O)c1ccncc1Br
Result: 0

Q: Could you share which CAMK1G (STD-NMR hit flag) value was measured for O=C(O)c1ccc(Br)cn1 ?
Result: 0

FYI, the data here is from paper PMC8847695.
